# Tested on: UACC-62 melanoma
# Method Description: NCI tumour cell line growth inhibition, 48 h
Please respond with reported GI50 for every item in the list.

What GI50 value was documented for this compound, "CCOc1ccc2c(-c3ccnc(Nc4cc(OC)cc(C(F)(F)F)c4)n3)cnn2n1" ?
> 10.9 µM

For the compound shown here, "Cc1ccc(S(=O)(=O)Oc2ccc3c4c(c(=O)oc3c2)CCCCCC4)cc1" , give the reported GI50.
> 100 µM

What value of GI50 has been recorded for this entry: "OCCCCC#Cc1ccccc1C#Cc1ccc(O)cc1"
15.7 µM

Look up GI50 for this compound: "C/C(=C\c1ccn(-c2ccccc2N)n1)[C@@H]1C[C@@H]2O[C@]2(C)CCC[C@H](C)[C@H](O)[C@@H](C)C(=O)C(C)(C)[C@@H](O)CC(=O)O1"
0.111 µM

// returns reported GI50 for input "CN(C)c1ccc(Nc2c3ccccc3nc3ccccc23)cc1"
1.19 µM

Returns the measured GI50 for the input compound. Input: "COc1ccc(/C=C(/c2ccccc2)[N+](=O)[O-])c(OC)c1"
1.22 µM

GET /values?readout=GI50&item= "COc1ccc2c(c1)/C(=C\c1ccncc1)C(=O)N2"
4.46 µM

# get_value(readout='GI50', item= "C=C1C(=O)O[C@H]2[C@H]1CC/C(COC(=O)CCCCCC(=O)OC/C1=C/CC[C@@]3(C)O[C@H]3[C@H]3OC(=O)C(=C)[C@@H]3CC1)=C\CC[C@@]1(C)O[C@@H]21" )
2.02 µM

----------
# Test system: 786-0 renal
# Method Description: NCI tumour cell line growth inhibition, 48 h
Readout: GI50

# get_value(readout='GI50', item= "O=C(CCN1CCCC1)Nc1ccc2c(NCc3ccccc3)c3ccccc3nc2c1" )
684 nM

// query GI50 value for entry "CCC[CH2][Sn]([CH2]CCC)([O]C(=O)c1cc(OC)c(OC)cc1OC)[O][Sn]([CH2]CCC)([CH2]CCC)[O]C(=O)c1cc(OC)c(OC)cc1OC"
240 nM

Looking for the measured GI50 of "COc1ccc(C(=O)Cn2c(C(=O)c3ccccc3)nc3ccccc32)cc1" , can you help?
9310 nM

Value lookup for GI50; key = "[2H]C([2H])([2H])NC(=O)c1nnc(NC(=O)C2CC2)cc1Nc1cccc(-c2ncn(C)n2)c1OC"
28400 nM

Which GI50 is reported for this compound? "Cc1cn2c(/C=C3/C(=O)Nc4c3ccc3ccccc43)c(C(F)(F)F)nc2s1"
1490 nM

----------
Answer each item with its documented GI50.
# System: HOP-62 NSCLC
# Method Description: NCI tumour cell line growth inhibition, 48 h

Entry "CCC(=O)N1C/C(=C/c2ccc(Cl)cc2)C(=O)/C(=C/c2ccc(Cl)cc2)C1" : reported GI50 = ?
499 nM

Give its GI50 value. Item: "COC(=O)c1c2c(c(C)[n+]([O-])c1C)C(=O)C=C(NCc1ccccc1)C2=O"
1490 nM

Reported GI50, compound "NC(=N\N=C/c1ccc(O)cc1)/C(N)=N\N=C/c1ccc(O)cc1" : ____
20700 nM

Fill blank: measured GI50 of the compound "CO/N=C(\COc1ccc2c(=O)c3ccccc3oc2c1)c1ccccc1" is ____.
26800 nM

Param item = "O=C(Oc1cccc(Cl)c1)c1ccccc1Nc1ccnc(C(F)(F)F)c1" ; retrieve measured GI50.
24900 nM

GET /values?readout=GI50&item= "COc1ccc(/C=C(/c2ccccc2)[N+](=O)[O-])c(OC)c1"
2420 nM

Recorded GI50 of "CN(C)c1ccc(Nc2c3ccccc3nc3ccccc23)cc1" , please.
1140 nM

Value lookup for GI50; key = "COc1cc(-c2nc3ccccc3s2)ccc1OCCCCOc1cc2c(cc1OC)C(=O)N1CCC[C@H]1C=N2"
1560 nM

Could you tell me which GI50 is on file for "Fc1ccc(-c2ncn(C3CCNCC3)c2-c2ccnc(Oc3ccc4c(c3)OCO4)n2)cc1" ?
> 25000 nM

// returns reported GI50 for input "COC(=O)c1cc(-c2ccccc2)[nH]c1N/N=C/c1c(Cl)cccc1Cl"
471 nM

----------
# Test system: UO-31 renal
# Method Description: NCI tumour cell line growth inhibition, 48 h
Lab note: compare TGI against 30 µM. Equal or greater, write 1 (yes). Smaller, write 0 (no).

Check the entry "COc1ccc(C#Cn2nnc3ccccc32)cc1" : does TGI equal or exceed 30 µM?
0 (no)

Kindly determine if TGI recorded for "COc1cc2c3c(n(CCCN)c(=O)c2cc1OC)-c1ccc([N+](=O)[O-])cc1C3=O" is above or exactly 30 µM.
0 (no)

Entry "O=C(O)C[C@H](O)C[C@H](O)/C=C/c1c(C2CC2)nc2ccccc2c1-c1ccc(F)cc1" : is its TGI no less than 30 µM?
1 (yes)

Item "N#CC1(C#N)C(C#N)(C#N)C1(C#N)C(N)=O" with TGI of 30 µM or above?
1 (yes)

Entry O=C1C2C(C(=O)N1c1ccccc1)C1c3ccccc3C2C2C(=O)N(c3ccccc3)C(=O)C21 (stereo unspecified) : is its TGI no less than 30 µM?
1 (yes)

Assess whether reported TGI for Fc1cccc(F)c1C1SCc2nc3cc(Cl)c(Cl)cc3n21 (stereo unspecified) sits at 30 µM or higher.
1 (yes)

Exam item: decide whether the reported TGI for "O=P1(N2CCOCC2)OCCO1" is at least 30 µM.
1 (yes)

Has "CC(C)N(C(=O)c1cccc(C(=O)N(C(C)C)C(C)C)c1)C(C)C" a recorded TGI greater than or equal to 30 µM?
1 (yes)

Entry "COc1cc2c(cc1OC)-c1ncc3c(OC)ccc(OC)c3c1C2" : is its TGI no less than 30 µM?
1 (yes)

TGI >= 30 µM for CC(C)(C)C1CCC2c3c([nH]c4ccccc34)C3C(=O)N(c4ccc(C#N)cc4)C(=O)C3C2C1 (stereo unspecified) ?
1 (yes)

Threshold query (TGI >= 30 µM) on "O=C1CCc2c(sc3[nH]c(=S)n(-c4cc(C(F)(F)F)cc(C(F)(F)F)c4)c(=O)c23)C1"
0 (no)

Is TGI for COc1ccc(C2C3=C(N=C4SC(C(C)=O)=C(C)N42)c2ccccc2CC3)cc1 (stereo unspecified) at or above 30 µM?
1 (yes)

API: above_or_equal(metric=TGI, cutoff=30 µM) for item "CCOC(=O)/C(C(N)=O)=C(\O)C(=O)/C(Br)=C(\O)c1ccccc1"
1 (yes)

Given "Clc1sc(Cl)c2c1[C@@H](Cl)C[C@@H]2Cl" , state whether its TGI is at least 30 µM.
1 (yes)

Textbook exercise: given the entry "[2H]C([2H])([2H])NC(=O)c1nnc(NC(=O)C2CC2)cc1Nc1cccc(-c2ncn(C)n2)c1OC" , state whether its TGI is greater than or equal to 30 µM.
1 (yes)

Reported TGI at or above 30 µM? "COc1ccccc1/C=C1\COc2ccc(-c3ccccc3)cc2C1=O"
1 (yes)

For this compound, is measured TGI 30 µM or higher? CCCCC(SC(=S)N1CCCC1)C(=O)Nc1nc(CC(=O)OCC)cs1 (stereo unspecified)
1 (yes)

Quick check: does "NC(=N\N=C/c1ccc(O)cc1)/C(N)=N\N=C/c1ccc(O)cc1" have TGI greater than or equal to 30 µM?
1 (yes)

Is the recorded value of TGI equal to or greater than 30 µM for this compound? "C=CC(=O)N1C/C(=C\c2ccc(Cl)c(Cl)c2)C(=O)/C(=C/c2ccc(Cl)c(Cl)c2)C1"
0 (no)

----------
# Tested on: SW-620 colon
# Method Description: NCI tumour cell line growth inhibition, 48 h
Readout: TGI

Given the entry "O=C(Oc1cccc(Cl)c1)c1ccccc1Nc1ccnc(C(F)(F)F)c1" , what TGI was observed with SW-620 colon?
23.3 µM

What reported TGI corresponds to "C/C(=C\c1ccn(-c2ccccc2N)n1)[C@@H]1C[C@@H]2O[C@]2(C)CCC[C@H](C)[C@H](O)[C@@H](C)C(=O)C(C)(C)[C@@H](O)CC(=O)O1" on SW-620 colon?
> 50 µM

Query the reported TGI for SW-620 colon; item: "c1nc(NCCc2cnc[nH]2)c2[nH]cnc2n1"
> 100 µM

So what TGI did "CN1C(=O)c2ccc3ccccc3c2C1=O" get with SW-620 colon?
> 100 µM

Request: TGI, test system SW-620 colon, entry "CN1/C(=C/C=C/C=C/C=C2C(=O)c3ccccc3C2=O)C(C)(C)c2ccccc21"
> 100 µM

Entry "CCCCCCCCCCCC1=NC(C)(C)CN1C(C)(C)CO" , system SW-620 colon: what TGI was measured?
3.08 µM

// fetch SW-620 colon TGI for "N#Cc1nc(-c2ccc(F)cc2)oc1S(=O)(=O)N1CCCCC1"
4.11 µM

Missing value: TGI, SW-620 colon, entry "Cc1ccc(/C=C(\C#N)c2cc3ccccc3n2C)cc1" . Fill in?
> 100 µM

// lookup TGI | system=SW-620 colon | key= C=C(C(=O)O[C@H]1C/C(C)=C/CC/C(CO)=C/[C@H]2C(=O)OC(=C)[C@H]12)C(O)CO (stereo not given in full)
14.4 µM

What is its TGI for SW-620 colon? Entry: C#C[C@]1(O)CC[C@H]2[C@@H]3CCC4=C/C(=N/NC(=O)c5cccc6c(=O)c7ccccc7[nH]c56)CCC4[C@H]3CC[C@@]21C (stereo not given in full)
> 100 µM

Report TGI for "C#CC(O)(c1nc2ccccc2s1)c1nc2ccccc2s1" tested on SW-620 colon.
> 100 µM

Test system SW-620 colon; read-out TGI; what value for "O=C(NNC(=S)Nc1ccccc1)c1nsc2ccccc12" ?
> 100 µM

Requested read-out TGI, target or system SW-620 colon, entry "O=C1NC(=O)c2ccccc2/C1=C/c1ccc2c(c1)OCO2"
> 100 µM

# get_value(readout= TGI, system= SW-620 colon) for "O=C1c2cc(Cc3ccccc3)c(=O)c(Cc3ccccc3)cc2C(=O)c2cc(Cc3ccccc3)c(=O)c(Cc3ccccc3)cc21"
> 100 µM

Requested read-out TGI, target or system SW-620 colon, entry "COc1cc(-c2nc3ccccc3s2)ccc1OCCCCOc1cc2c(cc1OC)C(=O)N1CCC[C@H]1C=N2"
2.72 µM

Recall the recorded TGI for "NCCCN(CCCCN(CCCN)C(=O)OCc1ccccc1)C(=O)OCc1ccccc1" with SW-620 colon and state it.
> 100 µM

What TGI appears in the records for this compound with SW-620 colon? NC(Cc1ccc(OCc2ccccc2)cc1)C(=O)NC(Cc1ccccc1)C(=O)Oc1c(Cl)c(Cl)c(Cl)c(Cl)c1Cl (stereo not given)
31.7 µM

# get_value(readout= TGI, system= SW-620 colon) for "C=CC(=O)N1CCC(c2ccc(C(N)=O)c(-c3ccc(Oc4ccccc4)cc3)n2)CC1"
> 100 µM

Form field: TGI recorded for "N#CC1(C#N)C(C#N)(C#N)C1(C#N)C(N)=O" with SW-620 colon (enter value)
> 100 µM

Enter reported TGI observed with SW-620 colon for "CC(C)(C)OC(=O)[C@@H]1CCC(=O)N1C1(c2ccccc2)c2ccccc2-c2ccccc21"
87.1 µM

Return TGI measured with SW-620 colon given this compound: COC(=O)C1=C(OC(=O)/C(=C/c2ccccc2)c2ccc(OC)cc2)C(C(=O)OC)[C@@]2(O)[C@@H](C(=O)OC)[C@H](C)C[C@@H]1[C@@H]2C(=O)OC (stereo not given in full)
> 100 µM

For the record "CCc1cccc2c3c([nH]c12)-c1ccccc1NC(=O)C3" , what value of TGI is listed for SW-620 colon?
> 100 µM

Give SW-620 colon TGI for "COc1ccccc1/C=C1\COc2ccc(-c3ccccc3)cc2C1=O"
5.6 µM

Item: "COc1ccccc1N=Nc1c(-c2ccccc2)nn(C(=O)CC(=O)Nc2cccc(C)c2)c1-c1ccccc1" Test system: SW-620 colon Read-out: TGI Value: ?
> 100 µM

Give the reported TGI for "CCOc1ccc2c(-c3ccnc(Nc4cc(OC)cc(C(F)(F)F)c4)n3)cnn2n1" (system: SW-620 colon).
> 25 µM

Give the reported TGI for C=C1CC(CC)(CCN2C(=O)c3ccccc3C2=O)OC1=O (stereo not given) (system: SW-620 colon).
22.9 µM

// lookup TGI | system=SW-620 colon | key= "O=C(O)CSc1ccccc1C(=O)O"
> 100 µM

Recall the recorded TGI for CC1=NN(c2cccc(Cl)c2)C2(C1=Cc1ccc(O)cc1)C(Cl)C(=O)N2c1nc2ccccc2s1 (stereo not given) with SW-620 colon and state it.
34.8 µM

Lab request: please report TGI under test system SW-620 colon for "O=C(O)C[C@H](O)C[C@H](O)/C=C/c1c(C2CC2)nc2ccccc2c1-c1ccc(F)cc1"
> 100 µM

Enter reported TGI observed with SW-620 colon for "COc1cc(CNc2nc3c(N)cc(C(F)(F)F)cc3nc2-c2ccccc2)cc(OC)c1OC"
> 100 µM

// fetch SW-620 colon TGI for C#CC1(O)CCC2C3CCc4cc(Oc5nc(F)nc(-c6c7ccccc7c7n6CCS7)n5)ccc4C3CC[C@@]21C (stereo not given in full)
> 100 µM

Missing value: TGI, SW-620 colon, entry "Cc1c(C(=O)C/C(=N/NC(=O)c2ccccc2)C(=O)Nc2ccc(Cl)cc2)[n+](=O)c2ccccc2n1[O-]" . Fill in?
> 100 µM

# get_value(readout= TGI, system= SW-620 colon) for "NNC(=O)Nc1nc2ccc(NN)cc2[nH]1"
67.4 µM

Lookup: TGI / SW-620 colon / CC(=O)n1cc(C2CC23N=C(c2ccccc2)OC3=O)c2ccccc21 (stereo not given)
56.7 µM

Give SW-620 colon TGI for "CCn1c(=O)c2nc(SC)sc2n(-c2ccc(C)cc2)c1=O"
> 100 µM

State its TGI on SW-620 colon: "OCCCCC#Cc1ccccc1C#Cc1ccc(O)cc1"
37.1 µM

What value of TGI on SW-620 colon does "Cn1nc2ccc(Nc3cc(=O)[nH]c4ccc5nn(C)nc5c34)cc2n1" have?
> 100 µM

Please state recorded TGI (tested on SW-620 colon) of C[C@@H]1[C@@H](C)C(c2ccccc2)O[Si]1(C(C)(C)C)C(C)(C)C (stereo not given in full)
34.9 µM

Give recorded TGI with SW-620 colon for the following compound: "O=c1c2c([nH]c3nccn13)CCC2"
> 10 µM

Request body: readout TGI, system SW-620 colon, query "COc1ccc(-n2c(=O)c3[nH]c(=S)[nH]c3n(-c3ccc(OC)cc3)c2=S)cc1" . Return the value.
> 100 µM
